Could you please report measured Ki for the items listed next?
- Assay Overview: Inhibition of Bovine heart ATP synthase assessed as inhibition constant by Michaelis-Menten plot analysis
- Design: species or system Bos taurus
- Condition: read-out: Ki
Non-standard residues stand in square brackets, D forms with d. Residues, ends and D or L forms follow the SMILES beside them. *: point of attachment. Hexenoyl(2E,4S-Me) = CC[C@H](C)/C=C/C(=O)*; NH((S)CH(Me)CH2NMe2) = C[C@@H](CN(C)C)N*; Pro(4S-Me) = C[C@@H]1CN[C@H](C(=O)O)C1; NH(1-CH2NMe2-cBu) = CN(C)CC1(N*)CCC1; Benzoyl(4-F) = O=C(c1ccc(F)cc1)*; hCha = N[C@@H](CCC1CCCCC1)C(=O)O; Aib = CC(C)(N)C(=O)O; βAla = NCCC(=O)O

- CC[C@H](C)/C=C/C(=O)N1C[C@@H](C)C[C@H]1C(=O)N[C@@H](CCC1CCCCC1)C(=O)N[C@@H](CC(C)C)C(=O)NC(C)(C)C(=O)N[C@@H](CC(C)C)C(=O)N[C@@H](CC(C)C)C(=O)NC(C)(C)C(=O)NC(C)(C)C(=O)NCCC(=O)N[C@@H](C)CN(C)C ({Hexenoyl(2E,4S-Me)}-[Pro(4S-Me)][hCha]L[Aib]LL[Aib][Aib][βAla]-{NH((S)CH(Me)CH2NMe2)}): 107 nM

Now let's try a different one.
# get_value(readout='Ki', item= CC(C)C[C@H](NC(=O)[C@H](CCC1CCCCC1)NC(=O)[C@@H]1CCCN1C(=O)c1ccc(F)cc1)C(=O)NC(C)(C)C(=O)N[C@@H](CC(C)C)C(=O)N[C@@H](CC(C)C)C(=O)NC(C)(C)C(=O)NC(C)(C)C(=O)NCCC(=O)NC1(CN(C)C)CCC1 ({Benzoyl(4-F)}-P[hCha]L[Aib]LL[Aib][Aib][βAla]-{NH(1-CH2NMe2-cBu)}) ) 265 nM

----------
Could you please report measured IC50 at 72 h for the items listed next?
- Assay Overview: Cytotoxicity against rat L6 cells assessed as cell viability incubated for 72 hrs by CCK-8 assay
Non-standard residues stand in square brackets, D forms with d. Residues, ends and D or L forms follow the SMILES beside them. *: point of attachment. Hexenoyl(2E,4S-Me) = CC[C@H](C)/C=C/C(=O)*; Leu(3R-OH) = CC(C)[C@@H](O)[C@H](N)C(=O)O; NH((S)CH(Me)CH2NMe2) = C[C@@H](CN(C)C)N*; Pro(4S-Me) = C[C@@H]1CN[C@H](C(=O)O)C1; Gly(octyl) = CCCCCCCC[C@H](N)C(=O)O; Benzoyl(4-F) = O=C(c1ccc(F)cc1)*; hCha = N[C@@H](CCC1CCCCC1)C(=O)O; Aib = CC(C)(N)C(=O)O; βAla = NCCC(=O)O
One number for each entry, in nM.

For orientation, consider the following solved cases.
* CC(C)C[C@H](NC(=O)[C@H](CC(C)C)NC(=O)C(C)(C)NC(=O)[C@@H](NC(=O)[C@H](CCC1CCCCC1)NC(=O)[C@@H]1CCCN1C(=O)c1ccc(F)cc1)[C@H](O)C(C)C)C(=O)NC(C)(C)C(=O)NC(C)(C)C(=O)NCCC(=O)N[C@@H](C)CN(C)C ({Benzoyl(4-F)}-P[hCha][Leu(3R-OH)][Aib]LL[Aib][Aib][βAla]-{NH((S)CH(Me)CH2NMe2)}) | 1230
* CC(C)C[C@H](NC(=O)[C@H](CC(C)C)NC(=O)C(C)(C)NC(=O)[C@@H](NC(=O)[C@H](CCC1CCCCC1)NC(=O)[C@@H]1C[C@H](C)CN1C(=O)c1ccc(F)cc1)[C@H](O)C(C)C)C(=O)NC(C)(C)C(=O)NC(C)(C)C(=O)NCCC(=O)N[C@@H](C)CN(C)C ({Benzoyl(4-F)}-[Pro(4S-Me)][hCha][Leu(3R-OH)][Aib]LL[Aib][Aib][βAla]-{NH((S)CH(Me)CH2NMe2)}) | 1340
* CC[C@H](C)/C=C/C(=O)N1C[C@@H](C)C[C@H]1C(=O)N[C@@H](CCC1CCCCC1)C(=O)N[C@H](C(=O)NC(C)(C)C(=O)N[C@@H](CC(C)C)C(=O)N[C@@H](CC(C)C)C(=O)NC(C)(C)C(=O)NC(C)(C)C(=O)NCCC(=O)N[C@@H](C)CN(C)C)[C@H](O)C(C)C ({Hexenoyl(2E,4S-Me)}-[Pro(4S-Me)][hCha][Leu(3R-OH)][Aib]LL[Aib][Aib][βAla]-{NH((S)CH(Me)CH2NMe2)}) | 232
* CC[C@H](C)/C=C/C(=O)N1C[C@@H](C)C[C@H]1C(=O)N[C@@H](CCC1CCCCC1)C(=O)N[C@@H](CC(C)C)C(=O)NC(C)(C)C(=O)N[C@@H](CC(C)C)C(=O)N[C@@H](CC(C)C)C(=O)NC(C)(C)C(=O)NC(C)(C)C(=O)NCCC(=O)N[C@@H](C)CN(C)C ({Hexenoyl(2E,4S-Me)}-[Pro(4S-Me)][hCha]L[Aib]LL[Aib][Aib][βAla]-{NH((S)CH(Me)CH2NMe2)}) | 157
* CC[C@H](C)/C=C/C(=O)N1CCC[C@H]1C(=O)N[C@@H](CCC1CCCCC1)C(=O)N[C@H](C(=O)NC(C)(C)C(=O)N[C@@H](CC(C)C)C(=O)N[C@@H](CC(C)C)C(=O)NC(C)(C)C(=O)NC(C)(C)C(=O)NCCC(=O)N[C@@H](C)CN(C)C)[C@H](O)C(C)C ({Hexenoyl(2E,4S-Me)}-P[hCha][Leu(3R-OH)][Aib]LL[Aib][Aib][βAla]-{NH((S)CH(Me)CH2NMe2)}) | 208

// batch mode: one IC50 at 72 h value per listed entry
1. CCCCCCCC[C@H](NC(=O)[C@@H]1C[C@H](C)CN1C(=O)/C=C/[C@@H](C)CC)C(=O)N[C@H](C(=O)NC(C)(C)C(=O)N[C@@H](CC(C)C)C(=O)N[C@@H](CC(C)C)C(=O)NC(C)(C)C(=O)NC(C)(C)C(=O)NCCC(=O)N[C@@H](C)CN(C)C)[C@H](O)C(C)C ({Hexenoyl(2E,4S-Me)}-[Pro(4S-Me)][Gly(octyl)][Leu(3R-OH)][Aib]LL[Aib][Aib][βAla]-{NH((S)CH(Me)CH2NMe2)})
2. CC(C)C[C@H](NC(=O)[C@H](CCC1CCCCC1)NC(=O)[C@@H]1C[C@H](C)CN1C(=O)c1ccc(F)cc1)C(=O)NC(C)(C)C(=O)N[C@@H](CC(C)C)C(=O)N[C@@H](CC(C)C)C(=O)NC(C)(C)C(=O)NC(C)(C)C(=O)NCCC(=O)N[C@@H](C)CN(C)C ({Benzoyl(4-F)}-[Pro(4S-Me)][hCha]L[Aib]LL[Aib][Aib][βAla]-{NH((S)CH(Me)CH2NMe2)})

1. 77
2. 266

----------
Could you please report measured Ki for the items listed next?
- Assay Overview: Inhibition of Bovine heart ATP synthase assessed as inhibition constant by Michaelis-Menten plot analysis
- Parameters: species or system Bos taurus
- Condition: read-out: Ki
Starred links: 1 amine or outer side, 2 acyl side, 3 side chain; linkers in the order of their positions; H or OH if unused. Non-standard residues stand in square brackets, D forms with d. Residues, ends and D or L forms follow the SMILES beside them. *: point of attachment. X1 = CCC(=O)C[C@@H](O)C[C@@H](C)C[C@H](N[*:1])C(=O)[*:2]; Hexenoyl(2E,4S-Me) = CC[C@H](C)/C=C/C(=O)*; Leu(3R-OH) = CC(C)[C@@H](O)[C@H](N)C(=O)O; NH((S)CH(Me)CH2NMe2) = C[C@@H](CN(C)C)N*; Pro(4S-Me) = C[C@@H]1CN[C@H](C(=O)O)C1; Gly(octyl) = CCCCCCCC[C@H](N)C(=O)O; hCha = N[C@@H](CCC1CCCCC1)C(=O)O; Aib = CC(C)(N)C(=O)O; βAla = NCCC(=O)O
// return the numeric value with its unit appended

// batch mode: one Ki value per listed entry
1. CCCCCCCC[C@H](NC(=O)[C@@H]1C[C@H](C)CN1C(=O)/C=C/[C@@H](C)CC)C(=O)N[C@H](C(=O)NC(C)(C)C(=O)N[C@@H](CC(C)C)C(=O)N[C@@H](CC(C)C)C(=O)NC(C)(C)C(=O)NC(C)(C)C(=O)NCCC(=O)N[C@@H](C)CN(C)C)[C@H](O)C(C)C ({Hexenoyl(2E,4S-Me)}-[Pro(4S-Me)][Gly(octyl)][Leu(3R-OH)][Aib]LL[Aib][Aib][βAla]-{NH((S)CH(Me)CH2NMe2)})
2. CC[C@H](C)/C=C/C(=O)N1CCC[C@H]1C(=O)N[C@@H](CCC1CCCCC1)C(=O)N[C@H](C(=O)NC(C)(C)C(=O)N[C@@H](CC(C)C)C(=O)N[C@@H](CC(C)C)C(=O)NC(C)(C)C(=O)NC(C)(C)C(=O)NCCC(=O)N[C@@H](C)CN(C)C)[C@H](O)C(C)C ({Hexenoyl(2E,4S-Me)}-P[hCha][Leu(3R-OH)][Aib]LL[Aib][Aib][βAla]-{NH((S)CH(Me)CH2NMe2)})
3. CCC(=O)C[C@@H](O)C[C@@H](C)C[C@H](NC(=O)[C@@H]1C[C@H](C)CN1C(=O)/C=C/[C@@H](C)CC)C(=O)N[C@H](C(=O)NC(C)(C)C(=O)N[C@@H](CC(C)C)C(=O)N[C@@H](CC(C)C)C(=O)NC(C)(C)C(=O)NC(C)(C)C(=O)NCCC(=O)N[C@@H](C)CN(C)C)[C@H](O)C(C)C ({Hexenoyl(2E,4S-Me)}-[Pro(4S-Me)][X1][Leu(3R-OH)][Aib]LL[Aib][Aib][βAla]-{NH((S)CH(Me)CH2NMe2)})

1. 53 nM
2. 29 nM
3. 80 nM

The measurements presented in this section are drawn from ChEMBL document CHEMBL6109069.
